TARGET_OR_TEST_SYSTEM: Aurora kinase B (Homo sapiens)
TEST_SETTINGS: at 10 µM
Please provide measured residual activity for the entries that follow.
Value expressed in %; do not type the unit.

// compound Cn1cnc2cc3c(Nc4cccc(Br)c4)ncnc3cc21 , assay Aurora kinase B (Homo sapiens), residual activity value: 6

Tested on Aurora kinase B (Homo sapiens), the item Cn1nc2c3c(cccc31)C(=O)c1ccccc1-2 showed residual activity equal to 6

Measured residual activity for this entry c1ccc2c(-c3ccncc3)c[nH]c2c1 on Aurora kinase B (Homo sapiens): 70

Given the compound Cc1cc2ncc(-c3ccccc3)nc2cc1C and test system Aurora kinase B (Homo sapiens), the measured residual activity is 75

Fill in: Aurora kinase B (Homo sapiens) residual activity for COc1ccc(C(=O)Nc2sc3c(c2C(N)=O)CCCC3)cc1OC = 46

# lookup: N#C/C(=C(\N)Sc1ccc(N)cc1)c1ccccc1C(F)(F)F on Aurora kinase B (Homo sapiens), residual activity = 15

Entry COc1ccc(OC)c2c(=S)c3ccccc3[nH]c12 under Aurora kinase B (Homo sapiens) had residual activity of 52

###

I'd appreciate it if you could supply residual activity values for the items below.
TARGET_OR_TEST_SYSTEM: cGMP-dependent protein kinase 1 (Homo sapiens)
TEST_SETTINGS: at 1 µM
Record the value in %, omitting the unit from your answer.

The compound listed as COc1cc2ncnc(N3CCN(C(=O)Nc4ccc(Oc5ccccc5)cc4)CC3)c2cc1OC shows residual activity equal to 99

# residual activity (compound: Cc1ccc(S(=O)(=O)/C=C/C#N)cc1 ) is 85

residual activity recorded for this compound, CN(C)c1ccc(/C=C2\C(=O)Nc3ccccc32)cc1 , is 121

Reported residual activity ( O=[N+]([O-])c1ccc(-c2nc(-c3ccc(F)cc3)c(-c3ccncc3)[nH]2)cc1 ) = 98

// sample O=C(Nc1cccc(Nc2nccc(Nc3cccc(C(F)(F)F)c3)n2)c1)C1CC1 , its residual activity was 100

Looking up CN(C)CCCn1cc(C2=C(c3c[nH]c4ccccc34)C(=O)NC2=O)c2ccccc21 , I found its residual activity recorded as 60

compound Ic1cccc(CSc2nnc(-c3ccncc3)o2)c1 , residual activity observed: 105

###

TARGET_OR_TEST_SYSTEM: Muscle, skeletal receptor tyrosine-protein kinase (Homo sapiens)
Sequence (whole entry): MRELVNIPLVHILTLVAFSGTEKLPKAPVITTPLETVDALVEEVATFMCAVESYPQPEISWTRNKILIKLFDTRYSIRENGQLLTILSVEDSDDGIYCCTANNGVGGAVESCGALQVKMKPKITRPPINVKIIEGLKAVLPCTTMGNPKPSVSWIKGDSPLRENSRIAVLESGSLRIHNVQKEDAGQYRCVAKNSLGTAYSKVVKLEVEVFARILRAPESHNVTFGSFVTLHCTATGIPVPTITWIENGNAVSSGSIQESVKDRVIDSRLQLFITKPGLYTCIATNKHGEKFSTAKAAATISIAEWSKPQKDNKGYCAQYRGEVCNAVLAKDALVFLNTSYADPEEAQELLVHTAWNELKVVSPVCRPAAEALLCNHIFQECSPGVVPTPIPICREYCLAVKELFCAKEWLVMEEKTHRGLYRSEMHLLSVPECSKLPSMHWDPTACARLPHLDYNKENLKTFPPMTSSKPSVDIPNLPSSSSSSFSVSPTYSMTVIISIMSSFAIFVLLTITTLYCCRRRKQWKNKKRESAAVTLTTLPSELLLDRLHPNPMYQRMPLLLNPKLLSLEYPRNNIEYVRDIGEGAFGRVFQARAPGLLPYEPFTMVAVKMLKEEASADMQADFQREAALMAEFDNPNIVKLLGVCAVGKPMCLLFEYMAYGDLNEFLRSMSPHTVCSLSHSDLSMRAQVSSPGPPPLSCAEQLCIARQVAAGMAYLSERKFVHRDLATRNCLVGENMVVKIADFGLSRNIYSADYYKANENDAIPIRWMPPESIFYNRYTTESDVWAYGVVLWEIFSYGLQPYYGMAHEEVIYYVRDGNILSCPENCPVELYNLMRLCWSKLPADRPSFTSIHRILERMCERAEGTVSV
TEST_SETTINGS: at 10 µM
Assignment: determine reported residual activity for the given molecules.
Answer with a number only, understood to be in %.

Measured residual activity, CC(=O)c1ccc(N2CCOCC2)cc1O : 81

Please fill in: residual activity reported for Cn1nc2c3c(cccc31)C(=O)c1ccccc1-2 = 81

The measured residual activity associated with c1ccc2c(-c3ccncc3)c[nH]c2c1 reads 82

# molecule c1ccc(-c2n[nH]cc2-c2ccnc3ccccc23)nc1 ; its residual activity = 79
